// provenance: PubChem BioAssay (Tox21)

# assay_target: Cytochrome P450 2D6 (Homo sapiens) (UniProt P10635)
# Sequence (P10635 whole entry, looked up): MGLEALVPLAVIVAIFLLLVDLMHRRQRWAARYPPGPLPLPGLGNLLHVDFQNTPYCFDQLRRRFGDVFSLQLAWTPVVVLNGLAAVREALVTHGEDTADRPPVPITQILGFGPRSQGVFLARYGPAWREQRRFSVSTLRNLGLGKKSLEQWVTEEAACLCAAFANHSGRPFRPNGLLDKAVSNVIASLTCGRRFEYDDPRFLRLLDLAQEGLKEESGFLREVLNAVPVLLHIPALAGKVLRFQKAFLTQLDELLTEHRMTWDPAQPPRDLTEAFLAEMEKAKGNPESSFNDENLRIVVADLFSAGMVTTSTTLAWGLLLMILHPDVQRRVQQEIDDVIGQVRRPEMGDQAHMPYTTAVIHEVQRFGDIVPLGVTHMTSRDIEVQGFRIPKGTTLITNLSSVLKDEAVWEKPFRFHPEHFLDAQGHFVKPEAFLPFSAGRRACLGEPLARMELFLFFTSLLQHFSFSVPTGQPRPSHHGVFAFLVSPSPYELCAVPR
# method_notes: Cytochrome P450 Family 2 Subfamily D Member 6 (CYP2D6) small molecule antagonists: luciferase reporter qHTS assay (AID 1671196); note: nearly all actives have a fitted effect of over 50% in size
# test_parameters: P450-Glo CYP2D6 enzyme assay, luciferin luminescence, 1 h; series mostly up to 115 µM
Records with an inconclusive call do not appear. Activity calls are given as the source filed them. Calls come from the whole dose curve; as a rule, active = well fitted inhibition curve with a large enough effect in the repeat runs; inconclusive = weak or mixed curves; inactive = no such curve, though single readings can be large or run the other way.
Classes used: 1 (active), -1 (inactive)

>>> class_label("CC[C@@H](CO)NCCN[C@@H](CC)CO")
-1
>>> class_label("Oc1cccc2[nH]ccc12")
1
>>> class_label("COC(=O)Nc1nc2ccc(C(=O)C3CC3)cc2[nH]1")
-1
>>> class_label("O=C(O)CCS")
-1
>>> class_label("CC(C)(C)NCC(O)COc1cccc2c1C[C@H](O)[C@H](O)C2 (stereo not given in full)")
-1
>>> class_label("CC(C)C1CCC(C(=O)N[C@H](Cc2ccccc2)C(=O)O)CC1 (stereo not given in full)")
-1
>>> class_label("CC1=CC[C@@]23C[C@@H]1C(C)(C)[C@@H]2CC[C@H]3C")
-1
>>> class_label("CC(=O)OCCC1CCCCC1")
-1
>>> class_label("Nc1ccc(NC(=O)c2ccc(N)cc2)cc1")
-1
>>> class_label("CCN(CC)CCOC(=O)C(c1ccccc1)c1ccccc1")
1
>>> class_label("c1ccc(CCCc2ccncc2)cc1")
1
>>> class_label("CNCc1ccc(NC(=O)c2c[nH]c3c2C(=O)CCC3)cc1")
-1
>>> class_label("CCCCCCOC(=O)CCCCC")
-1
>>> class_label("CCCC(=O)OC(=O)CCC")
-1
>>> class_label("COC(C)(C)OC")
-1
>>> class_label("CO[C@@H]1[C@@H](OC)[C@H](C)[C@@](O)(CC(=O)O)O[C@H]1[C@H](C)[C@H]1O[C@@]2(CC[C@@](C)([C@H]3CC[C@@](C)([C@@H]4O[C@@H]([C@H]5O[C@](C)(O)[C@H](C)C[C@@H]5C)C[C@@H]4OC4C[C@H](OC)[C@@H](OC)[C@H](C)O4)O3)O2)C[C@H](O)[C@H]1C (stereo not given in full)")
-1
>>> class_label("O=C1c2ccccc2C(=O)c2c(O)ccc(O)c21")
-1
>>> class_label("CC(C)N(C)C")
-1
>>> class_label("CCOc1ncc(F)c(=O)[nH]1")
-1
>>> class_label("CC(C)C(=O)OCCOc1ccccc1")
-1
>>> class_label("O=C(O)CCC(=O)c1ccc(-c2ccccc2)cc1")
-1
>>> class_label("CCC(CO)(CO)[N+](=O)[O-]")
-1
>>> class_label("CC(=O)OCC(=O)[C@@]1(OC(C)=O)[C@@H](C)C[C@H]2[C@@H]3C[C@H](F)C4=CC(=O)C=C[C@]4(C)[C@@]3(F)[C@@H](O)C[C@@]21C")
-1
>>> class_label("O=C(O)c1cccc(C[C@@H]2COc3ccc(OCc4nc5cc(F)ccc5s4)cc3[C@@H]2O)c1")
-1
>>> class_label("O=C(O)c1cccc(Oc2ccccc2)c1")
-1
